src = paper PMC10397247

Provide the reported interaction score of each item.
Biological target: T1, 4H662-AA
T1 chain: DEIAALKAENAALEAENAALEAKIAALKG
Test: two-hybrid library CCmax;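 also: natural log of median RNA to DNA barcode read ratio; higher means stronger binding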
Settings: mean of both orientations
Give bare numbers.

1) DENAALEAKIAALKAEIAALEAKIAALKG [4H1350-AA]: -1.35
2) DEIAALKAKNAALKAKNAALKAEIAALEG [4H1017-AA]: 2.48
3) DKIAALEAKNAALKAENAALEAEIAALEG [4H2513-AA]: 1.22
4) DKIAALEAENAALEAKIAALEAENAALEG [4H2211-AA]: -1.54
5) DKIAALKAEIAALEAKNAALEAKIAALKG [4H2614-AA]: -1.17
6) DKIAALKAEIAALEAKIAALKAKNAALKG [4H2608-AA]: -1.55

For each of the items listed, what is its interaction score?
1. DENAALEAKIAALKAKNAALKAKIAALEG [4H1405-AA]
2. DKNAALKAEIAALEAENAALEAKIAALEG [4H3605-AA]
3. DENAALEAENAALEAKIAALKAKIAALKG [4H1198-AA]

# output
1. 0.709
2. -1.77
3. -1.15
